- Tested on: HaCat
- Test Method Notes: Cytotoxic Profiling of Annotated Libraries Using Quantitative High-Throughput Screening (AID 1296008); further: nearly all actives have a fitted effect of over 60% in size
- Condition Label: Five cell lines viability, CellTiter-Glo ATP luminescence, 48-72 h; active compounds read low
- Experimental: Cell-based phenotypic screening is a commonly used approach to discover biological pathways, novel drug targets, chemical probes and high-quality hit-to-lead molecules. […] A pintool (Kalypsys) was used to transfer 23 nL of compound solution to the 1536-well assay plates. […] Plates were left at room temperature for 10 min before imaging the ATP-coupled luminescence using a ViewLux microplate imager (PerkinElmer, Waltham, MA).
Results filed as inconclusive are left out.
# if measured max response < -20%: t  # else: f

input: For this molecule, is max response lower than -20%? CCOC(=O)N1c2ccc(C(F)(F)F)cc2[C@@H](N(Cc2cc(C(F)(F)F)cc(C(F)(F)F)c2)C(=O)OC)C[C@H]1CC
output: f

input: For this molecule, is max response lower than -20%? Cc1ccccc1C(C(=O)NC1CCCCC1)N(C(=O)CNc1ccc(C#N)cc1)c1cccc(F)c1 (configuration not stated)
output: f

input: For this molecule, is max response lower than -20%? COc1cc(F)c(C(C)C)cc1-c1ccc(C(F)(F)F)cc1CN1C(=O)O[C@H](c2cc(C(F)(F)F)cc(C(F)(F)F)c2)[C@@H]1C
output: f

input: For this molecule, is max response lower than -20%? CCNC(=O)[C@H]1O[C@@H](n2cnc3c(N)nc(NCCc4ccc(CCC(=O)O)cc4)nc32)[C@H](O)[C@H]1O
output: f

input: For this molecule, is max response lower than -20%? CC(O)=C(C#N)C(=O)Nc1ccc(C(F)(F)F)cc1
output: t
